- System Tested: T1, control peptide A2E-14/HLA-A*02:01 complex on T2 cells (member of the P19 mixture) (human)
- T1 construct: Loaded on T2 cells as part of the mixture of 19 control peptides
- Measurement Notes: flow cytometry, phage on T2 cells

Binder	binding result
PSA146/HLA-A*02:01-specific scFv phage clone #6 (scFv, V domains shown) VH: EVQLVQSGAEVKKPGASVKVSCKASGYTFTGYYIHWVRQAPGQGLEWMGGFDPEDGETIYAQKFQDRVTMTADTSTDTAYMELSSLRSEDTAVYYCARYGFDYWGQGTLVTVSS VL: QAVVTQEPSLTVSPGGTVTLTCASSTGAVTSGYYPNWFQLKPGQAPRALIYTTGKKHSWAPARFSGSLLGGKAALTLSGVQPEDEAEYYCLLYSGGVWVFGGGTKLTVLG	no binding
PSA146/HLA-A*02:01-specific scFv phage clone #15 (scFv, V domains shown) VH: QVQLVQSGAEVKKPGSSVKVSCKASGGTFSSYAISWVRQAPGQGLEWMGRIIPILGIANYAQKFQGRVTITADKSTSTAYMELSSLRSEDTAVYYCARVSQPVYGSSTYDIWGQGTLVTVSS VL: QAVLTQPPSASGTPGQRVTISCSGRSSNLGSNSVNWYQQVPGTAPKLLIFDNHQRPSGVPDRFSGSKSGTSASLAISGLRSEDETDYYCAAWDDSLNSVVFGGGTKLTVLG	no binding
PSA146/HLA-A*02:01-specific scFv phage clone #12 (scFv, V domains shown) VH: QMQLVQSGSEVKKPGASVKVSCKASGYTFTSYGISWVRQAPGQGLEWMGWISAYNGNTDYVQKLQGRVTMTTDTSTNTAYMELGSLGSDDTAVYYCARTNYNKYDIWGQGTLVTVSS VL: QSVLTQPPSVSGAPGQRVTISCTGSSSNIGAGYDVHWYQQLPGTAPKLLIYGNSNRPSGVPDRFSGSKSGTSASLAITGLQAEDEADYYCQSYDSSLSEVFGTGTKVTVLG	no binding
